system: platelets (aggregation induced with collagen, arachidonic acid, ADP or PAF); test: Effect in inhibiting aggulutination of platelets (in vitro), human platelet-rich plasma; format: cell-based; details: Homo sapiens, read-out: Effect of inhibiting ADP aggultination IC50
pIC50: −log10 of the molar value.
endpoint name: pIC50

>>> measured_number("COc1ccc(C(=C(C#N)CCC(=O)O)c2ccc(OC)cc2)cc1")
5.72

----------
tested on: platelets (aggregation induced with collagen, arachidonic acid, ADP or PAF); test: Effect in inhibiting aggulutination of platelets (in vitro), human platelet-rich plasma; format: cell-based; settings: Homo sapiens, read-out: Effect of inhibiting arachidonic acid aggultination IC50
pIC50: −log10 of the molar value.
endpoint name: pIC50

>>> measured_number("COc1ccc(C(=C(C#N)CCC(=O)O)c2ccc(OC)cc2)cc1")
6.10

----------
system: platelets (aggregation induced by collagen or arachidonic acid); assay: Effect of inhibiting aggultination of platelets (ex vivo), oral administration to guinea pigs; type: in vivo; conditions: Cavia porcellus, Platelet, 2 h; guinea pigs, oral, two hours after administration, collagen (3 μg/ml), ex vivo; read-out: Effect of inhibiting collagen aggultination ED50
Response field label takes condition met when ED50 is strictly below 20 mg/kg and condition not met in all other cases.

>>> class_name("COc1ccc(C(=CC(=O)NCc2ccccc2)c2ccc(OC)cc2)cc1 [Cpd. A]")
"condition not met"
>>> class_name("COC(=O)CCCC(C#N)=C(c1ccc(OC)cc1)c1ccc(OC)cc1 [Cpd. E]")
"condition met"
>>> class_name("CCOC(=O)CC(=O)CON=C(c1ccc(OC)cc1)c1ccc(OC)cc1 [Cpd. L]")
"condition not met"
>>> class_name("CCOC(=O)CCC(C#N)=C(c1ccc(OC)cc1)c1ccc(OC)cc1 [Cpd. C]")
"condition met"
>>> class_name("CCOC(=O)CCC(C#N)ON=C(c1ccc(OC)cc1)c1ccc(OC)cc1 (stereo not drawn) [Cpd. O]")
"condition met"
>>> class_name("COc1ccc(C(=NOC(C#N)CCC(=O)O)c2ccc(OC)cc2)cc1 (stereo not drawn) [Cpd. P]")
"condition met"

----------
Tested on: platelets (aggregation induced with collagen, arachidonic acid, ADP or PAF)
Test: Effect in inhibiting aggulutination of platelets (in vitro), human platelet-rich plasma
Type: cell-based
Settings: arachidonic acid-induced, human PRP, incubated at 37° C. for three minutes, in vitro, read-out: Effect of inhibiting arachidonic acid aggultination IC50
Protocol: 1. Effect in inhibiting aggulutination of platelets […] The blood was collected from a human cubital vein in such a manner as to contain a 3.8% solution of sodium citrate in an amount 1.10 time by volume as much as the blood. Then platelet-rich plasma (PRP) was prepared therefrom according to the method reported by Packham et al. (ct. Packham, M. A., et al, J. Exp. Med., 126, 171-189 (1967)). […]
pIC50: −log10 of the molar value.
endpoint name: pIC50

>>> measured_number("COC(=O)CCCC(C#N)ON=C(c1ccc(OC)cc1)c1ccc(OC)cc1 (centres unmarked)")
4.92
>>> measured_number("CON=C(CON=C(c1ccc(OC)cc1)c1ccc(OC)cc1)CC(=O)O")
6.15
>>> measured_number("COc1ccc(C(=CCNS(=O)(=O)c2ccccc2)c2ccc(OC)cc2)cc1")
6.05
>>> measured_number("COc1ccc(C(=NOC(C#N)CCC(=O)O)c2ccc(OC)cc2)cc1 (centres unmarked)")
6.40
>>> measured_number("CCOC(=O)CC(CON=C(c1ccc(OC)cc1)c1ccc(OC)cc1)=NOC")
4.90
>>> measured_number("COc1ccc(C(=CC(=O)NCc2ccccc2)c2ccc(OC)cc2)cc1")
5.30
>>> measured_number("CCOC(=O)CC(=O)CON=C(c1ccc(OC)cc1)c1ccc(OC)cc1")
7.00
>>> measured_number("CCOC(=O)CCC(C#N)=C(c1ccc(OC)cc1)c1ccc(OC)cc1")
7.15
>>> measured_number("COC(=O)CCCC(C#N)=C(c1ccc(OC)cc1)c1ccc(OC)cc1")
7.22
>>> measured_number("COc1ccc(C(=NOC(C#N)CCCC(=O)O)c2ccc(OC)cc2)cc1 (centres unmarked)")
4.30
>>> measured_number("CCOC(=O)CCC(C#N)ON=C(c1ccc(OC)cc1)c1ccc(OC)cc1 (centres unmarked)")
5.15

----------
# reported log10 of ED50; entries follow
test system: platelets (aggregation induced by collagen or arachidonic acid); assay: Effect of inhibiting aggultination of platelets (ex vivo), oral administration to guinea pigs; format: in vivo; conditions: Cavia porcellus, Platelet, 2 h; guinea pigs, oral, two hours after administration, arachidonic acid (50 μM), ex vivo; read-out: Effect of inhibiting arachidonic acid aggultination ED50
endpoint name: log10 of ED50 (log10 of the value in mg/kg)

>>> measured_number("COC(=O)CCCC(C#N)ON=C(c1ccc(OC)cc1)c1ccc(OC)cc1 (stereo not shown)")
1.70
>>> measured_number("COc1ccc(C(=NOC(C#N)CCC(=O)O)c2ccc(OC)cc2)cc1 (stereo not shown)")
-0.52
>>> measured_number("Clc1ccccc1CN1CCc2sccc2C1 [Ticlopidine, reference compound]")
2.18
>>> measured_number("CCOC(=O)CCC(C#N)ON=C(c1ccc(OC)cc1)c1ccc(OC)cc1 (stereo not shown)")
-0.52
>>> measured_number("COc1ccc(C(=CCNS(=O)(=O)c2ccccc2)c2ccc(OC)cc2)cc1")
1.30
>>> measured_number("CCOC(=O)CCC(C#N)=C(c1ccc(OC)cc1)c1ccc(OC)cc1")
-1.52
>>> measured_number("CCOC(=O)CC(=O)CON=C(c1ccc(OC)cc1)c1ccc(OC)cc1")
1.48

----------
system: platelets (aggregation induced by collagen or arachidonic acid); assay: Effect of inhibiting aggultination of platelets (ex vivo), oral administration to guinea pigs; type: in vivo; details: Cavia porcellus, Platelet, 2 h; guinea pigs, oral, two hours after administration, collagen (3 μg/ml), ex vivo; read-out: Effect of inhibiting collagen aggultination ED50
endpoint name: ED50 (mg/kg)

>>> measured_number("COC(=O)CCCC(C#N)ON=C(c1ccc(OC)cc1)c1ccc(OC)cc1 (stereo not drawn) [Cpd. Q]")
88
>>> measured_number("CON=C(CON=C(c1ccc(OC)cc1)c1ccc(OC)cc1)CC(=O)O [Cpd. N]")
1.3
>>> measured_number("CCOC(=O)CC(CON=C(c1ccc(OC)cc1)c1ccc(OC)cc1)=NOC [Cpd. M]")
55

----------
system: platelets (aggregation induced by collagen or arachidonic acid); experiment: Effect of inhibiting aggultination of platelets (ex vivo), oral administration to guinea pigs; assay type: in vivo; conditions: Cavia porcellus, Platelet, 2 h; guinea pigs, oral, two hours after administration, arachidonic acid (50 μM), ex vivo; read-out: Effect of inhibiting arachidonic acid aggultination ED50
Consider the following compounds and their measured ED50 readings.
endpoint name: ED50 (mg/kg)

>>> measured_number("CON=C(CON=C(c1ccc(OC)cc1)c1ccc(OC)cc1)CC(=O)O [Cpd. N]")
0.3
>>> measured_number("COC(=O)CCCC(C#N)=C(c1ccc(OC)cc1)c1ccc(OC)cc1 [Cpd. E]")
0.3
>>> measured_number("COc1ccc(C(=CC(=O)NCc2ccccc2)c2ccc(OC)cc2)cc1 [Cpd. A]")
100
>>> measured_number("CCOC(=O)CC(CON=C(c1ccc(OC)cc1)c1ccc(OC)cc1)=NOC [Cpd. M]")
55

----------
tested on: platelets (aggregation induced by collagen or arachidonic acid); assay: Effect of inhibiting aggultination of platelets (ex vivo), oral administration to guinea pigs; format: in vivo; details: Cavia porcellus, Platelet, 2 h; guinea pigs, oral, two hours after administration, collagen (3 μg/ml), ex vivo; read-out: Effect of inhibiting collagen aggultination ED50
# maps each entry to its ED50
endpoint name: ED50

>>> result("COc1ccc(C(=NOC(C#N)CCCC(=O)O)c2ccc(OC)cc2)cc1 (stereo not drawn) [Cpd. R]")
"≤ 100 mg/kg"
>>> result("Clc1ccccc1CN1CCc2sccc2C1 [Ticlopidine, reference compound]")
"≤ 200 mg/kg"
>>> result("COc1ccc(C(=CCNS(=O)(=O)c2ccccc2)c2ccc(OC)cc2)cc1 [Cpd. B]")
"20 mg/kg"
